test: folding enthalpy; higher = less favourable; fluorescence melt of hairpins on a sequencing array, two-state fit; details: sodium 0.088 M
Label not met if folding enthalpy falls below -20 kcal/mol; label met in every other case.

>  <polymer sequence>
GATTTACGAAAGTAATC (((.(((....))))))

>  <group label>
met

$$$$
>  <polymer sequence>
GTGGAGGGAAACTTCCGC (.(((.(....).))).)

>  <group label>
not met

$$$$
>  <polymer sequence>
GATCCATCACTGGATC ((((((....))))))

>  <group label>
not met

$$$$
>  <polymer sequence>
GCACAGCGAAAGCGCTGC (((..((....))..)))

>  <group label>
met

$$$$
>  <polymer sequence>
GATCACGAAAGTGCATC ((((((....))).)))

>  <group label>
not met

$$$$
>  <polymer sequence>
GATCAACTGATTGATC ((((((....))))))

>  <group label>
not met

$$$$
>  <polymer sequence>
GTTCGCGAAAGCGCGAAC ((((((....)))..)))

>  <group label>
not met

$$$$
>  <polymer sequence>
GGACGAGAAATCGTCC ((((((....))))))

>  <group label>
not met

$$$$
>  <polymer sequence>
GCATGGCGAAAGCTACGC ((.(.((....)).).))

>  <group label>
met

$$$$
>  <polymer sequence>
GGTCCTGGAAACAGAACC (((.(((....))).)))

>  <group label>
not met

$$$$
>  <polymer sequence>
CGCTCGGAAACGAACGCG ((((((....)))..)))

>  <group label>
met

$$$$
>  <polymer sequence>
GCAATTCGAAAGAAGTGC (((.(((....))).)))

>  <group label>
not met

$$$$
>  <polymer sequence>
ACAAGGAAACTTGT (((((....)))))

>  <group label>
met

$$$$
>  <polymer sequence>
GATCGGTTGCCGATC ((((((...))))))

>  <group label>
not met

$$$$
>  <polymer sequence>
GTCGGAGGAAACTCCAAC ((.((((....)))).))

>  <group label>
not met

$$$$
>  <polymer sequence>
CGGCCGGAAACGGAGCCG ((((((....)))..)))

>  <group label>
not met

$$$$
>  <polymer sequence>
GTCAGCGAAAGCTCAGAC ((((((....)))..)))

>  <group label>
met

$$$$
>  <polymer sequence>
GCGCAGTCGAAAGACCGC (((..(((....))))))

>  <group label>
not met

$$$$
>  <polymer sequence>
GAGTACGGAAACGTATTC ((.((((....)))).))

>  <group label>
not met

$$$$
>  <polymer sequence>
GCTTGTGGAAACACAGGC ((.((((....)))).))

>  <group label>
not met

$$$$
>  <polymer sequence>
GTTCTTGGAAACAAGAAC (((((((....)))))))

>  <group label>
not met

$$$$
>  <polymer sequence>
GTGCGTGGAAACACGCGC (.(((((....))))).)

>  <group label>
met

$$$$
>  <polymer sequence>
GGTTCCGAAAGGAGGACC ((((((....)))..)))

>  <group label>
met

$$$$
>  <polymer sequence>
GGCCACGAAAGTGCCGCC ((((((....)))..)))

>  <group label>
not met

$$$$

Taken from the array DNA melting data of Ke et al. (doi:10.1101/2024.01.08.574731).
